B1: ETS1 (parent)
chain: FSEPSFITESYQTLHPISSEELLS

Variants of: B1
Assay: protein stability index of a GFP-peptide fusion (GPS, HEK-293T) (PSI 1-6); higher = more stable;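 further: lentivirally expressed fusions sorted by FACS into six bins by GFP to DsRed ratio, PSI derived from sequencing read proportions per bin multiplied by bin number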
Conditions: c terminus: a fixed tail appended
Everything with protein stability index lower than 2 is F; everything else, including exactly 2, is T.

{"columns": ["SEQ_STRING", "CATEGORY"],
 "data": [
  ["FSEPSFHTESYQTLHPISSEELLS", "T"],
  ["FSLPSFITESYQTLHPISSEELLS", "F"],
  ["FSEPEFITESYQTLHPISSEELLS", "T"],
  ["FSEPSFITESYETLHPISSEELLS", "T"],
  ["FSEPSFITESYQTLYPISSEELLS", "F"],
  ["FSEPSFITESYQTLHPISFEELLS", "F"],
  ["FSEPSFITESYQTLHFISSEELLS", "T"]
]}
